# Tested on: influenza A virus minigenome (PB2, PB1, PA, NP; luciferase reporter) in 293T cells, RNP_Hubei
# assayProcedure: microbe, parasite or virus in culture
# Type: cell-based
# testParameters: HEK-293T, 48 h

{"columns": ["smilesStructure", "EC50"],
 "data": [
  ["CN(C)C(=O)Oc1c2n(ncc1=O)[C@@H]([C@H](c1ccc(F)cc1)c1cccc(F)c1F)[C@H]1CCCN1C2=O", "≥ 1000 nM"],
  ["CC(C)OC(=O)OCOc1c2n(ncc1=O)[C@@H]([C@H](c1ccccc1)c1cccc(F)c1F)[C@H]1CCCN1C2=O", "< 100 nM"],
  ["O=C1c2c(O)c(=O)cnn2[C@@H]([C@H](c2ccccc2F)c2cccc(F)c2F)[C@H]2CCCN12", "< 100 nM"],
  ["CCC(=O)Oc1c2n(ncc1=O)[C@@H]([C@H](c1ccccc1)c1cccc(F)c1F)[C@H]1CCCN1C2=O", "< 100 nM"],
  ["CC(C)(C)C(=O)Oc1c2n(ncc1=O)[C@@H]([C@H](c1ccccc1)c1cccc(F)c1F)[C@H]1CCCN1C2=O", "< 100 nM"],
  ["O=C1c2c(O)c(=O)cnn2[C@@H]([C@@H](c2ccc(F)cc2)c2cccc(C(F)(F)F)c2)[C@H]2CCCN12", "< 100 nM"],
  ["CCOC(=O)OCOc1c2n(ncc1=O)[C@@H]([C@H](c1ccc(F)cc1)c1cccc(F)c1F)[C@H]1CCCN1C2=O", "< 100 nM"],
  ["CCC(=O)Oc1c2n(ncc1=O)[C@@H]([C@H](c1cccc(F)c1)c1cccc(F)c1F)[C@H]1CCCN1C2=O", "< 100 nM"],
  ["O=C1c2c(O)c(=O)cnn2[C@@H]([C@H](c2ccc(F)cc2)c2cccc(OC(F)(F)F)c2)[C@H]2CCCN12", "100 to 1000 nM"],
  ["COC(=O)C(C)(C)OC(=O)OCOc1c2n(ncc1=O)[C@@H]([C@H](c1ccccc1)c1cccc(F)c1F)[C@H]1CCCN1C2=O", "100 to 1000 nM"],
  ["COC(=O)Oc1c2n(ncc1=O)[C@@H]([C@H](c1cccc(F)c1)c1cccc(F)c1F)[C@H]1CCCN1C2=O", "< 100 nM"],
  ["Cc1ccccc1[C@H](c1cccc(C)c1F)[C@H]1[C@H]2CCCN2C(=O)c2c(O)c(=O)cnn21", "< 100 nM"],
  ["CCC(=O)OCOc1c2n(ncc1=O)[C@@H]([C@H](c1ccccc1)c1cccc(F)c1F)[C@H]1CCCN1C2=O", "< 100 nM"],
  ["CCN(CC)C(=O)OCOc1c2n(ncc1=O)[C@@H]([C@H](c1ccccc1)c1cccc(F)c1F)[C@H]1CCCN1C2=O", "≥ 1000 nM"],
  ["COc1c2n(ncc1=O)[C@@H]([C@H](c1ccc(F)cc1)c1cccc(F)c1F)[C@H]1CCCN1C2=O", "≥ 1000 nM"],
  ["COC(=O)OCOc1c2n(ncc1=O)[C@@H]([C@H](c1ccc(F)cc1)c1cccc(F)c1F)[C@H]1CCCN1C2=O", "< 100 nM"],
  ["COCCC(=O)Oc1c2n(ncc1=O)[C@@H]([C@H](c1cccc(F)c1)c1cccc(F)c1F)[C@H]1CCCN1C2=O", "< 100 nM"],
  ["Cc1cccc([C@H](c2ccc(F)cc2)[C@H]2[C@H]3CCCN3C(=O)c3c(O)c(=O)cnn32)c1", "< 100 nM"],
  ["O=C1c2c(O)c(=O)cnn2[C@@H]([C@H](c2ccc(F)cc2)c2cccc(C(F)(F)F)c2)[C@H]2CCCN12", "100 to 1000 nM"]
]}
